Data credit: patent US10287269B2

- target-entity: human PDE2A1 (Homo sapiens)
- Construct: GST; purchased BPS Bioscience (San Diego, Calif.) 60020; host or cells: insect cells
- test-details: PDE2 IMAP FP inhibition assay, human enzyme (PDE selectivity panel format)
- Assay type: biochemical
- experimental-context: Lab B; read-out: Human PDE2 Ki (nM) Lab B
- Experimental: Selectivity for PDE2, as compared to other PDE families, was assessed using the IMAP® technology. Human PDE10A2 enzyme was prepared from cytosolic fractions of transiently transfected HEK cells. […] Assays for PDE 1 through 11 were performed in parallel at room temperature in 384-well microtiter plates with an incubation volume of 20.2 μL. […] The intrinsic PDE2 inhibitory activity of a compound which may be used in accordance with the present invention may be determined by these assays. […]
Answer each item with its documented log10 Ki.
All values: base-10 log of Ki in nM.

(Q) Give the measured log10 Ki of COc1ccc(Cc2nc(-c3cnn(C(C)c4ccc(C(F)(F)F)cc4)c3)cc(=O)[nH]2)cc1OC (single isomer, unassigned) [Example 61] .
(A) -0.05

(Q) Give the measured log10 Ki of Cc1nc(-n2cc([C@H](C)c3ccc(C(F)(F)F)cc3)cn2)cc(=O)[nH]1 (single isomer, unassigned) [Example 4] .
(A) 1.16

(Q) Give the measured log10 Ki of Cc1nc(-n2cc(C3(C)OCc4cc(C(F)(F)F)ccc43)cn2)cc(=O)[nH]1 (single isomer, unassigned) [Example 28] .
(A) 1.86

(Q) Give the measured log10 Ki of Cc1nc(-c2cc([C@H](C)c3ccc(C(F)(F)F)cc3)[nH]n2)cc(=O)[nH]1 (single isomer, unassigned) [Example 23] .
(A) 1.29

(Q) Give the measured log10 Ki of Cc1nc(-n2cc(C(C)c3ccc(C(F)(F)F)cc3F)cn2)cc(=O)[nH]1 (single isomer, unassigned) [Example 53] .
(A) 1.52

(Q) Give the measured log10 Ki of Cc1nc(-n2cc(Cc3ccc(OC(F)(F)F)cc3)cn2)cc(=O)[nH]1 [Example 30] .
(A) 3.05

(Q) Give the measured log10 Ki of Cc1nc(-c2cnn(C(C)c3ccc(C(F)(F)F)cc3F)c2)cc(=O)[nH]1 (single isomer, unassigned) [Example 136] .
(A) 0.88

(Q) Give the measured log10 Ki of Cc1nc(-c2ccn(C(C)c3ccc(C(F)(F)F)cc3)n2)cc(=O)[nH]1 (single isomer, unassigned) [Example 77] .
(A) 2.64

(Q) Give the measured log10 Ki of Cc1nc(-n2cc([C@H](CO)c3ccc(C(F)(F)F)cc3F)cn2)cc(=O)[nH]1 (single isomer, unassigned) [Example 19] .
(A) 1.93

(Q) Give the measured log10 Ki of Cc1nc(-c2cnn(C(C)c3ccc(S(F)(F)(F)(F)F)cc3)c2)cc(=O)[nH]1 (single isomer, unassigned) [Example 63] .
(A) 1.67

====

Answer each item with its documented Ki.
- target-entity: Rhesus PDE2A3 (Macaca mulatta, UniProt B3VTJ2)
- Construct: made in house; host or cells: AD293 cells, transient transfection, pcDNA3.3-TOPO; lysate supernatant used as enzyme
- Sequence (B3VTJ2 1-941): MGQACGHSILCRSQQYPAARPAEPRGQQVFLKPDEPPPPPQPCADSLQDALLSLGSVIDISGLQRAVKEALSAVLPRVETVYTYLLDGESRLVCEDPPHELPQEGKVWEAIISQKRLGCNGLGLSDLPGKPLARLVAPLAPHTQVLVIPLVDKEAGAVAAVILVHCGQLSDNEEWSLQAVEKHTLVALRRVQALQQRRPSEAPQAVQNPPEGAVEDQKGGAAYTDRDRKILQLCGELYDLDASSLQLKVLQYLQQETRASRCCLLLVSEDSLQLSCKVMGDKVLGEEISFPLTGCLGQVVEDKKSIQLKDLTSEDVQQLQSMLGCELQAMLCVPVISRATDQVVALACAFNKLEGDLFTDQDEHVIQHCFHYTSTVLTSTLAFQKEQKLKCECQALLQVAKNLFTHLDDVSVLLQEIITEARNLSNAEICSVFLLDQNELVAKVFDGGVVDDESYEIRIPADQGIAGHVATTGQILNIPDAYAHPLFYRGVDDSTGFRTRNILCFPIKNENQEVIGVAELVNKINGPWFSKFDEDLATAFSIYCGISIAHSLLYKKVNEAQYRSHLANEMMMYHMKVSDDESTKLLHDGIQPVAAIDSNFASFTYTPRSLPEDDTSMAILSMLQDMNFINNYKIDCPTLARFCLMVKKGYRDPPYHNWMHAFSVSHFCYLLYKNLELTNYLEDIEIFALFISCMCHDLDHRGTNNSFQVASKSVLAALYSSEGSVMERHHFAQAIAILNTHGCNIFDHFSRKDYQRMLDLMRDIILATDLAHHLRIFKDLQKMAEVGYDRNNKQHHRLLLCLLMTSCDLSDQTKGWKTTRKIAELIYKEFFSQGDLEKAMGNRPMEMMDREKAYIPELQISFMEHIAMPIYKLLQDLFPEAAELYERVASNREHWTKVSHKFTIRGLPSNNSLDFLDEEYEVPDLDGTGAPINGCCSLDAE
- test-details: PDE2 fluorescence polarization (IMAP FP) inhibition assay, rhesus enzyme
- Type: biochemical, rhesus macaque
- experimental-context: Lab A; read-out: Rhesus PDE2 Ki (nM) Lab A
Please give a number only; it is taken to be in nM.

(Q) Give the measured Ki of Cc1nc(-c2cnn(C(C)c3ccc(C(F)(F)F)cc3Cl)c2)cc(=O)[nH]1 (single isomer, unassigned) [Example 84] .
(A) 179

(Q) Give the measured Ki of CCc1nc(-c2cnn(C(C)c3ccc(C(F)(F)F)cc3F)c2)cc(=O)[nH]1 (single isomer, unassigned) [Example 85] .
(A) 14.4

(Q) Give the measured Ki of Cc1nc(-c2cnn(C(C)c3ccc(CC(F)(F)F)cc3F)c2)cc(=O)[nH]1 (single isomer, unassigned) [Example 95] .
(A) 1140

(Q) Give the measured Ki of COCc1ccc(C(C)n2cc(-c3cc(=O)[nH]c(C)n3)cn2)c(F)c1 (single isomer, unassigned) [Example 97] .
(A) 464

(Q) Give the measured Ki of CC(C)c1nc(-c2cnn(C(C)c3ccc(C(F)(F)F)cc3F)c2)cc(=O)[nH]1 (centres unmarked) .
(A) 58.8

(Q) Give the measured Ki of COc1ccc(Cc2nc(-c3cnn(C(C)c4ccc(C(F)(F)F)cc4F)c3)cc(=O)[nH]2)cc1OC (single isomer, unassigned) .
(A) 0.2

(Q) Give the measured Ki of Cc1nc(-c2cnn(C(c3ccc(C(F)(F)F)cc3F)C(C)C)c2)cc(=O)[nH]1 (centres unmarked) .
(A) 54.6

(Q) Give the measured Ki of Cc1nc(-c2cnn(C(C)c3ccc(OC(F)F)cc3F)c2)cc(=O)[nH]1 (single isomer, unassigned) [Example 88] .
(A) 162

====

- target-entity: human PDE2A1 (Homo sapiens, UniProt O00408)
- Construct: GST; purchased BPS Bioscience (San Diego, Calif.) 60020; host or cells: insect cells
- Sequence (O00408 1-920 isoform O00408-2): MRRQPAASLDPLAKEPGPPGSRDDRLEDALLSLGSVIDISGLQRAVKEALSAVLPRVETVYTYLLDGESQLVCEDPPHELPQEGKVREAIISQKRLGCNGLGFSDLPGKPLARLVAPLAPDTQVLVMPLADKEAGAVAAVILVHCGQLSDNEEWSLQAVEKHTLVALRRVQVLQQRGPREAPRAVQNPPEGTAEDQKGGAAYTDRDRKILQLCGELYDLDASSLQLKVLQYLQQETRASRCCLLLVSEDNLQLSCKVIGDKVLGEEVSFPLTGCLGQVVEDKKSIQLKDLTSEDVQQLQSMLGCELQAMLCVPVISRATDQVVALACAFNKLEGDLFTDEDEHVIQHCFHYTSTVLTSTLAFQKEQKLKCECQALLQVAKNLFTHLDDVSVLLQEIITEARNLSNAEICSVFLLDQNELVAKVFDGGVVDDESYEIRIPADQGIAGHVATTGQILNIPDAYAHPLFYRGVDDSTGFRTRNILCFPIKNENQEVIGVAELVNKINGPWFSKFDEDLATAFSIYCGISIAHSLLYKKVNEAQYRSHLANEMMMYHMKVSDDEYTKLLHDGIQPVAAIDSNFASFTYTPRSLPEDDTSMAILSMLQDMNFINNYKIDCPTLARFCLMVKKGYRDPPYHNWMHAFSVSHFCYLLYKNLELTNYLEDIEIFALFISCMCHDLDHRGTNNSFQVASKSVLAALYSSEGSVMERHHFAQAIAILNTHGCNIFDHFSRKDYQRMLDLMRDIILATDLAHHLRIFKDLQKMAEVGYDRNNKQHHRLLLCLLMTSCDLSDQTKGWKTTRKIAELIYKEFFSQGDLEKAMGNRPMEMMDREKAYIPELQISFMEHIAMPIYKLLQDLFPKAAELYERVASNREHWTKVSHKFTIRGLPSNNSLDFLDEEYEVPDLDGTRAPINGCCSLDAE
- test-details: PDE2 IMAP FP inhibition assay, human enzyme (PDE selectivity panel format)
- Assay type: biochemical
- experimental-context: Lab A; read-out: Human PDE2 Ki (nM) Lab A
parameter: Ki (nM)
Please give a number only; it is taken to be in nM.

(Q) Give the measured Ki of COc1ccc(Cc2nc(-c3cnn(C(C)c4ccc(C(F)(F)F)cc4F)c3)cc(=O)[nH]2)cc1 (single isomer, unassigned) [Example 139] .
(A) 41.6

(Q) Give the measured Ki of COc1cc(Cc2nc(-c3cnn(C(C)c4ccc(C(F)(F)F)cc4F)c3)cc(=O)[nH]2)ccc1F (single isomer, unassigned) [Example 143] .
(A) 27.9

(Q) Give the measured Ki of CCCc1ccc([C@](C)(O)c2cnn(-c3cc(=O)[nH]c(C)n3)c2)c(F)c1 (single isomer, unassigned) [Example 13] .
(A) 287

(Q) Give the measured Ki of COC(=O)C(c1ccc(C(F)(F)F)cc1F)n1cc(-c2cc(=O)[nH]c(C)n2)cn1 (stereo not shown) .
(A) 1970
